System: SW-620 colon
Test: NCI tumour cell line growth inhibition, 48 h
TGI: recorded values

Some entries whose results are on file:
>  <compound>
C=C[C@]1(C)CC(=O)C(C(C)C=O)[C@]12C(=O)Oc1cccc(C)c1C2=O (stereo partly drawn)

>  <experimental target>
SW-620 colon

>  <TGI>
25.2 µM

$$$$
>  <compound>
Cc1cc(Cl)ccc1NC(=O)CC1SC(=NC(=O)c2ccccc2Cl)NC1=O (stereo not drawn)

>  <experimental target>
SW-620 colon

>  <TGI>
32.3 µM

$$$$
>  <compound>
Cc1cc2nc3c(=O)[nH]c(=O)nc-3n(CC(O)C(O)C(O)CO)c2cc1N (stereo not drawn)

>  <experimental target>
SW-620 colon

>  <TGI>
> 100 µM

$$$$
>  <compound>
Cc1cc(O[C@@H]2O[C@@H](C)[C@H](O)[C@@H](O)[C@H]2O)c2c3c(c(O[C@@H]4O[C@@H](C)[C@H](O)[C@@H](O)[C@H]4O)cc2c1)C(=O)c1c(O)cccc1C3=O

>  <experimental target>
SW-620 colon

>  <TGI>
> 30 µM

$$$$
>  <compound>
COc1ccc(/C=C2\C[C@H]3[C@@H]4CC=C5C[C@@H](OC(C)=O)CC[C@]5(C)[C@H]4CC[C@]3(C)C2=O)cc1OC

>  <experimental target>
SW-620 colon

>  <TGI>
> 100 µM

$$$$
>  <compound>
CC1OC(OC2C(OC(=O)[C@]34CCC(C)(C)CC3C3=CCC5[C@@]6(C)C[C@H](O)[C@H](OC7OC(COC8OC(CO)C(O)C(O)C8O)C(O)C(O)C7O)[C@@](C)(C(=O)O)C6CC[C@@]5(C)C3(C)CC4)OCC(O)C2O)C(O)C(O)C1OC1OCC(O)C(O)C1O (stereo partly drawn)

>  <experimental target>
SW-620 colon

>  <TGI>
> 100 µM

$$$$
>  <compound>
COc1ccc(C(=O)N2CCN(c3ccc4c(c3)OCC(=O)N4)CC2)cc1OC

>  <experimental target>
SW-620 colon

>  <TGI>
> 100 µM

$$$$

Turning to the following compound.
Answer with the recorded TGI of COc1cc(N2CCN(C(C)C)CC2)ccc1Nc1nc(Nc2ccc(F)cc2C(=O)NCC(O)CO)c2cc[nH]c2n1 (stereo not drawn) only.
> 25 µM

Hey, just so you know, these numbers are from PubChem BioAssay (NCI).
